system: PPARg:RXRa 270nM:90nM, anti-RXR (NR concentration 270 nM, RXRa partner concentration 90 nM); test: PBM binding z-score (relative to random genomic background probes); higher = stronger binding; sequences stand for … in GC…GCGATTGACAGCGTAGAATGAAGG
# maps each entry to its PBM binding z-score
readout-kind: PBM binding z-score

1. TCGAGTAGGTTAGTCGGGGGATTCAGCCAACATA: 1.49
2. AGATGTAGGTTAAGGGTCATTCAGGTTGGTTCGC: 9.78
3. AATACAGGGTCATCGTTGGCCAGAGTACGCACAG: 5.97
4. TTACCTAGGTGAAAGGTCGTTGATGCACGCCTTG: 9.22
5. GCATATAGGTAATACAGGGTGAAAGTCCGATTGT: 1.47
6. CGAACTAGGCCAGAACAGGACAGTGAAGGATGAT: 0.225
7. GCGACTGGTGCAAAGCAGGTTACCATAAGGTTGG: -0.0216
8. TAGCCTAGGTCGGATCGGGCCAGTATACGCTATA: -0.371
9. TCTACAGGGTCAAAGGCCAGAGTACGAATGTCGA: 7.12
10. ATATCTAGGTTAGCTGGGGTCATTCAGACTAGGC: 5.22
11. GCTTGTAGATCAAGATTAAGAAAGACTAAGCTAA: -0.333
12. TCTTATAGATCAGCAGGTTAAGAAAGCTGGCCAA: 1.43
